Hey, just so you know, these numbers are from PubChem BioAssay (NCI).

test system: 786-0 renal; assay: NCI-60 one-dose screen, 48 h (100 = growth as untreated, 0 = no growth, -100 = all killed); details: 10 µM unless noted
About 83,000 compounds went through this panel and 20% of them were active in at least one assay; those are over-represented in the sample as a whole.
endpoint: growth (%)
Field format: number, assumed %, no unit text.

Solved cases below.
- compound: "CCCCCCCC/C=C/CCCCCCCC1=NC(C)(C)CN1CCO"
  displayUnit: "%"
  growth: 32.3
- compound: "Nc1c2ccccc2nc2ccccc12 (tested in a mixture with another compound)"
  displayUnit: "%"
  growth: 32.5

Next, consider the following compound.
Lookup: Given CCOc1nc(-c2ccccc2)cc2c(O)c(C(=O)n3nc(C)cc3C)[nH]c(=O)c12 , state its recorded growth.
Found: 100
